# test.target: SHP2 protein (Homo sapiens, UniProt Q06124)
# procedure.summary: Measurement of SHP2 protein degradation in MV-4-11 cells (western blotting)
# Assay type: cell-based
# Set-up: endogenous in cells
# condition.context: 0.01 μM, harvested after 24 hours
observation.type: SHP2% degradation (%)

Example compounds with recorded SHP2% degradation:
• Cc1ncsc1-c1ccc(CNC(=O)[C@@H]2C[C@@H](O)CN2C(=O)[C@@H](NC(=O)C2(F)CC2)C(C)(C)C)c(OC2CCN(C(=O)CC3CCN(c4nccc(Sc5cnc(N6CCC(C)(CN)CC6)cn5)c4Cl)CC3)CC2)c1 [Example 71] = 60.0
• Cc1ncsc1-c1ccc(CNC(=O)[C@@H]2C[C@@H](O)CN2C(=O)[C@@H](NC(=O)C2(F)CC2)C(C)(C)C)c(OCCN2CCN(CC3CCN(c4nccc(Sc5cnc(N6CCC(C)(CN)CC6)cn5)c4Cl)CC3)CC2)c1 [Example 8] = 11.7
• CC(=O)N[C@H](C(=O)N1C[C@H](O)C[C@H]1C(=O)NCc1ccc(-c2scnc2C)cc1OC1CCN(C(=O)[C@H]2C[C@@H](Nc3nccc(Sc4cnc(N5CCC(C)(CN)CC5)cn4)c3Cl)C2)CC1)C(C)(C)C [Example 74] = 97.0
• CC(=O)N[C@H](C(=O)N1C[C@H](O)C[C@H]1C(=O)NCc1ccc(-c2scnc2C)cc1O[C@H]1CC[C@H](C(=O)N2CC(Nc3cccc(Sc4cnc(N5CCC(C)(CN)CC5)cn4)c3Cl)C2)CC1)C(C)(C)C [Example 27] = 95.8
• Cc1ncsc1-c1ccc(CNC(=O)[C@@H]2C[C@@H](O)CN2C(=O)[C@@H](NC(=O)C2(F)CC2)C(C)(C)C)c(O[C@H]2CC[C@H](C(=O)N3CC(CNc4cccc(Sc5cnc(N6CCC(C)(CN)CC6)cn5)c4Cl)C3)CC2)c1 [Example 18] = 63.2

(1) Cc1ncsc1-c1ccc(CNC(=O)[C@@H]2C[C@@H](O)CN2C(=O)[C@@H](NC(=O)C2(F)CC2)C(C)(C)C)c(O[C@H]2CC[C@H](C(=O)N3CCC(Nc4cccc(Sc5cnc(N6CCC(C)(CN)CC6)cn5)c4Cl)CC3)CC2)c1 [Example 17]
(2) Cc1ncsc1-c1ccc(CNC(=O)[C@@H]2C[C@@H](O)CN2C(=O)[C@@H](NC(=O)C2(F)CC2)C(C)(C)C)c(OC2CCN(C(=O)C3(F)CCN(c4nccc(Sc5cnc(N6CCC(C)(CN)CC6)cn5)c4Cl)CC3)CC2)c1 [Example 69]
Exercise: Which has the smaller recorded SHP2% degradation, 1 or 2 ? Mark your selection by writing its label.
Solution: 2
(2: 19.9%, 1: 64.4%)
